Molecular target: UniProt:P43115
Sequence (P43115 whole entry): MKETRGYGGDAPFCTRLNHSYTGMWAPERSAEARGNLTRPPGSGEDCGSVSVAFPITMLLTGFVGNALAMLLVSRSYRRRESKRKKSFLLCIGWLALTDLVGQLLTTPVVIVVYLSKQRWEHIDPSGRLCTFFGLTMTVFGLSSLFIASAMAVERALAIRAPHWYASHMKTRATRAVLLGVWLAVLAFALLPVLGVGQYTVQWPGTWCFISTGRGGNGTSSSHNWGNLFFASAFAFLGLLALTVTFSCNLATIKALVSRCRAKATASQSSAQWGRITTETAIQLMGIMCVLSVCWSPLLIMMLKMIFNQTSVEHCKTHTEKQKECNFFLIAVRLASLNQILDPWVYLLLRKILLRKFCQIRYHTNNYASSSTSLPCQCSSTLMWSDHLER
Assay: Other receptors functional EC50: hEP3A
Type: cell-based
From the text: U.S. patent application Ser. No. 11/553,143, filed on Oct. 26, 2006, now issued as U.S. Pat. No. 7,427,685 incorporated by reference herein, describes the methods used to obtain the in vitro data in the tables below.
attribute.measured: pEC50
Scale for pEC50: -log10 of concentration given in mol/L; no unit attached.

Record request: pEC50 value, item O=C(O)c1ccc(CCC[C@@H]2[C@@H](CNc3cc(Cl)cc(Cl)c3)[C@H](O)C[C@H]2Cl)s1 [drawing 6] 5.15

---

molecular target: EP2 (Homo sapiens)
Sequence (P43116 whole entry): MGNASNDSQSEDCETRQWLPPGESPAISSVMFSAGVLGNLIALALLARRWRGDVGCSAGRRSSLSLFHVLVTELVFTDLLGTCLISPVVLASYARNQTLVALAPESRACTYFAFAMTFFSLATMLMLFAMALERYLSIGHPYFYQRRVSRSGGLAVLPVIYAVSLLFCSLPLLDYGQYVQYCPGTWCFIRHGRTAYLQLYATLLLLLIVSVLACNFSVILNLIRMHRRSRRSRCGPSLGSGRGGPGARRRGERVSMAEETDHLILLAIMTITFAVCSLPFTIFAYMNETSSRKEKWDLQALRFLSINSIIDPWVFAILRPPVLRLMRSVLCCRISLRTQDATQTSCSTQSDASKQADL
attribute.measured: Ki
Hey, just the number and the unit after it is fine.

Field request: Ki | item: O=C(O)c1ccc(CCC[C@@H]2[C@@H](CNc3cc(Cl)cc(Cl)c3)[C@H](O)C[C@H]2Cl)s1 [drawing 6] 1.5 nM
